# Tested on: Ebolavirus
# testDescription: Antiviral activity against VSV based pseudotyped virus expressing Ebola-GP infected in […] cells assessed as reduction in viral infection incubated for 24 hrs by linear regression analysis
# Type: functional, organism-based
# condition: Orthoebolavirus
measurementType: pEC50
# pEC50 = -log10(concentration in molar units)

Field pEC50 (entry C[C@]12CC3CC(C(=O)N[C@H]4CC[C@H](N)CC4)(C1)C[C@@](c1ccccc1)(C3)C2 ) reads 6.62

----------
pIC50 by entry:
# testDescription: Inhibition of NPC1/VSV pseudotyped Ebola Viral Glycoprotein protein-protein interaction
# Parameters: species or system Ebolavirus
# pIC50 = -log10(concentration in molar units)

[[record]]
smilestext = "COC(=O)c1ccc(COc2ccccc2CN2CCN(C(=O)CNC(=O)CC34CC5CC(CC(C5)C3)C4)CC2)cc1"
measurementtype = "pIC50"
experimentalvalue = 6.89


Field pIC50 (entry O=C(CC12CC3CC(CC(C3)C1)C2)NCC(=O)N1CCN(Cc2ccccc2)CC1 ) reads 5.80
